- EXPERIMENTAL SYSTEM: recombinant rat α3β3γ2 receptors (Rattus norvegicus, UniProt P18508+P20236)
- Sequence (P20236 29-493): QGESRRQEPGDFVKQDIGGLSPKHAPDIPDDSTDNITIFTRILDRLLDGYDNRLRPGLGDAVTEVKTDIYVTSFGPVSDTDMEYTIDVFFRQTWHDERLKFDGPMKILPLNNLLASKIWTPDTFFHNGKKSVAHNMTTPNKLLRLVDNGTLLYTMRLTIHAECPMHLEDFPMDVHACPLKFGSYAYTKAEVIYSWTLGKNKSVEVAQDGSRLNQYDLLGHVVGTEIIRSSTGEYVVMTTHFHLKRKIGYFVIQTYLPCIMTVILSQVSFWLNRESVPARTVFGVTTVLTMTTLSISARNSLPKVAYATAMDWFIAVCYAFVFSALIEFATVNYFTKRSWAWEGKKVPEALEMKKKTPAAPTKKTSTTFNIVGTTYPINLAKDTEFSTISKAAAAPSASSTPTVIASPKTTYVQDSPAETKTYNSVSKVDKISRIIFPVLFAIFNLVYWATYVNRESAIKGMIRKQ
- Sequence (P63079 26-473 partner): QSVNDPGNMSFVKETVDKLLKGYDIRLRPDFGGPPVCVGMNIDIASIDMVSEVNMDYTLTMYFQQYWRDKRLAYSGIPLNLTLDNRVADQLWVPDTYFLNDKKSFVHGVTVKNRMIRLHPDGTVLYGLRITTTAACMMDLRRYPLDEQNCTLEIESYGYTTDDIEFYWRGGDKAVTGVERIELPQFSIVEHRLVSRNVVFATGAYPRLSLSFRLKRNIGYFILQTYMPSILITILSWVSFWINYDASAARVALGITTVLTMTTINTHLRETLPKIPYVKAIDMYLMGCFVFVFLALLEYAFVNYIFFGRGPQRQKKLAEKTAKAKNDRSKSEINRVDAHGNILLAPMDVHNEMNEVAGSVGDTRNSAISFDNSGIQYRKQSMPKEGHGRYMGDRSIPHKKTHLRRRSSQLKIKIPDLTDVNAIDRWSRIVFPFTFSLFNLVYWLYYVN
- Sequence (P18508 39-466): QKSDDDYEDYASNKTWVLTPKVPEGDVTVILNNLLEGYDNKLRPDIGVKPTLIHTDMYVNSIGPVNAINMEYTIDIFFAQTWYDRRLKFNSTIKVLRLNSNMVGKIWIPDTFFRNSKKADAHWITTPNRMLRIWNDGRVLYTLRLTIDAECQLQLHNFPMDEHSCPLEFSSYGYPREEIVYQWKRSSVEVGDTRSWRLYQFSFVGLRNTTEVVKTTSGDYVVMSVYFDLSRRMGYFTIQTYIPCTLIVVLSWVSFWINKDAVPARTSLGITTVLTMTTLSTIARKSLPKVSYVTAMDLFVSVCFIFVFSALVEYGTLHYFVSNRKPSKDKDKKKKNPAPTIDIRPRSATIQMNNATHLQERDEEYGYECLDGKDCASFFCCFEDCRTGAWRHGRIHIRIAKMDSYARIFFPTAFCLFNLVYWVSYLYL
- ASSAY COMMENT: Two-electrode voltage clamp of GABA-induced chloride currents in Xenopus oocytes
- Type: cell-based
- CONDITIONS USED: 1 μM; α3β3γ2; ns = not significant

{"columns": ["COMPOUND", "UNITS LABEL", "efficacy (% GABA EC3)"],
 "data": [
  ["CN1C(=O)CN=C(c2ccccc2)c2cc(Cl)ccc21", "% GABA EC3", 752],
  ["CCOC(=O)c1ncn2c1CN(C)C(=O)c1cc(F)ccc1-2", "% GABA EC3", 156],
  ["CC(C)(C)OC(=O)c1ncn2c1[C@@H]1CCCN1C(=O)c1c(Br)cccc1-2", "% GABA EC3", 224],
  ["CN1CCN(C(=O)OC2c3nccnc3C(=O)N2c2ccc(Cl)cn2)CC1 (stereo not drawn)", "% GABA EC3", 377],
  ["CCc1c(C(=O)OC)ncc2[nH]c3cc(OC)c(OC)cc3c12", "% GABA EC3", 75],
  ["Cc1nnc2ccc(-c3cccc(C(F)(F)F)c3)nn12", "% GABA EC3", 138]
]}
